- measured.target: Grb2 SH2 (UniProt P62993)
- Sequence (P62993 whole entry, looked up, the tested form may be a part): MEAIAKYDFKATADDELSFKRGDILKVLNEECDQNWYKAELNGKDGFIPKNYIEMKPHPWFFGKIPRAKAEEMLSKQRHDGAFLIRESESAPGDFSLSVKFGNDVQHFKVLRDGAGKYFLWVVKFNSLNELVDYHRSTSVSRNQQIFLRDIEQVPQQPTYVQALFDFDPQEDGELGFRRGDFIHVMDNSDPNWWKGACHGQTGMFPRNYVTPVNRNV
- assay.overview: SH2 binding enrichment of the phosphorylated peptide, bacterial display (enrichment ratio); higher = better substrate or ligand; peptides without Tyr show the background;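 note: peptide library displayed on the E. coli surface as eCPX fusions, selected cells deep-sequenced, score is each peptide's frequency after selection divided by its frequency in the input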
A collection of sequences and their measured SH2 binding enrichment

[
  {
    "item.sequence": "RHPYFFAPELL [ALB_Y174_Y174F]",
    "measured.property": "SH2 binding enrichment",
    "readout.value": 1.22
  },
  {
    "item.sequence": "EIVHRYVELLD [AP1S3_Y87]",
    "measured.property": "SH2 binding enrichment",
    "readout.value": 0.91
  },
  {
    "item.sequence": "NMSRIYSTTKV [ACE_Y151_A154T]",
    "measured.property": "SH2 binding enrichment",
    "readout.value": 0.972
  },
  {
    "item.sequence": "WRPFGYPHRRR [BCS1L_Y181_R183H]",
    "measured.property": "SH2 binding enrichment",
    "readout.value": 0.662
  },
  {
    "item.sequence": "KEAQVYQAFKL [SUCLG2_Y343]",
    "measured.property": "SH2 binding enrichment",
    "readout.value": 0.858
  },
  {
    "item.sequence": "NLGQQYNSPQE [UMPS_Y432]",
    "measured.property": "SH2 binding enrichment",
    "readout.value": 0.814
  }
]

Q) Requested field: SH2 binding enrichment. Item: KSSDVYVSYDY [SORL1_Y136]
A) 0.729

Q) What about this sequence? MGRVNYGAFIN [GLB1_Y485_YF]
A) 0.903

Q) What about this sequence? IDGLEYLHSQS [STK11_Y166_G171S]
A) 0.768

Q) What about this sequence? IVRSPYEDLED [VHL_Y185_L184P]
A) 0.962

Q) What about this sequence? VEDQYYRVDCY [FHL1_Y208_C209R]
A) 0.891

Q) What about this sequence? PFSEPYADFGG [APBA1_Y187_YF]
A) 0.862

Q) What about this sequence? PNQRRYVYYYS [PTEN_Y174_S170N]
A) 1.17

Q) What about this sequence? YDYKKYGKGLR [ZNF445_Y433]
A) 0.939

Q) What about this sequence? TISPFYCQSLF [CRYAA_Y48_R49C_YF]
A) 0.912

Q) What about this sequence? VLTSKHRGGGG [HBA1_Y141_Y141H]
A) 1.02

Q) What about this sequence? DEGVNHFMSKG [FBXO8_Y156_Y156H]
A) 0.718

Q) What about this sequence? RQNRFYDAKVR [FKBP6_Y188]
A) 1.02

Q) What about this sequence? GLALRYLSDHS [VWF_Y1584]
A) 0.732

Q) What about this sequence? RLLRGHDQSAF [HLA-C_Y137_Y137H_YF]
A) 0.89

Q) What about this sequence? CDKEYYSVHNK [MET_Y1235_Y1230C]
A) 0.655

Q) What about this sequence? KGYCGYSYDDI [TMEM230_Y110_R108C]
A) 0.837

Q) What about this sequence? FMCKVYSDRQP [FGFR1_Y280_P283R]
A) 0.771

Q) What about this sequence? SIKDKYVTAVY [KCNH2_Y611_L615V]
A) 0.808
